Assign PAPP-A cleavage of IGFBP-5 Mean pIC50 to each entry below.
Biological target: recombinant human PAPPA (pregnancy associated plasma protein-A) (human, UniProt Q13219 82-1627)
Sequence (Q13219 82-1627 limits assumed): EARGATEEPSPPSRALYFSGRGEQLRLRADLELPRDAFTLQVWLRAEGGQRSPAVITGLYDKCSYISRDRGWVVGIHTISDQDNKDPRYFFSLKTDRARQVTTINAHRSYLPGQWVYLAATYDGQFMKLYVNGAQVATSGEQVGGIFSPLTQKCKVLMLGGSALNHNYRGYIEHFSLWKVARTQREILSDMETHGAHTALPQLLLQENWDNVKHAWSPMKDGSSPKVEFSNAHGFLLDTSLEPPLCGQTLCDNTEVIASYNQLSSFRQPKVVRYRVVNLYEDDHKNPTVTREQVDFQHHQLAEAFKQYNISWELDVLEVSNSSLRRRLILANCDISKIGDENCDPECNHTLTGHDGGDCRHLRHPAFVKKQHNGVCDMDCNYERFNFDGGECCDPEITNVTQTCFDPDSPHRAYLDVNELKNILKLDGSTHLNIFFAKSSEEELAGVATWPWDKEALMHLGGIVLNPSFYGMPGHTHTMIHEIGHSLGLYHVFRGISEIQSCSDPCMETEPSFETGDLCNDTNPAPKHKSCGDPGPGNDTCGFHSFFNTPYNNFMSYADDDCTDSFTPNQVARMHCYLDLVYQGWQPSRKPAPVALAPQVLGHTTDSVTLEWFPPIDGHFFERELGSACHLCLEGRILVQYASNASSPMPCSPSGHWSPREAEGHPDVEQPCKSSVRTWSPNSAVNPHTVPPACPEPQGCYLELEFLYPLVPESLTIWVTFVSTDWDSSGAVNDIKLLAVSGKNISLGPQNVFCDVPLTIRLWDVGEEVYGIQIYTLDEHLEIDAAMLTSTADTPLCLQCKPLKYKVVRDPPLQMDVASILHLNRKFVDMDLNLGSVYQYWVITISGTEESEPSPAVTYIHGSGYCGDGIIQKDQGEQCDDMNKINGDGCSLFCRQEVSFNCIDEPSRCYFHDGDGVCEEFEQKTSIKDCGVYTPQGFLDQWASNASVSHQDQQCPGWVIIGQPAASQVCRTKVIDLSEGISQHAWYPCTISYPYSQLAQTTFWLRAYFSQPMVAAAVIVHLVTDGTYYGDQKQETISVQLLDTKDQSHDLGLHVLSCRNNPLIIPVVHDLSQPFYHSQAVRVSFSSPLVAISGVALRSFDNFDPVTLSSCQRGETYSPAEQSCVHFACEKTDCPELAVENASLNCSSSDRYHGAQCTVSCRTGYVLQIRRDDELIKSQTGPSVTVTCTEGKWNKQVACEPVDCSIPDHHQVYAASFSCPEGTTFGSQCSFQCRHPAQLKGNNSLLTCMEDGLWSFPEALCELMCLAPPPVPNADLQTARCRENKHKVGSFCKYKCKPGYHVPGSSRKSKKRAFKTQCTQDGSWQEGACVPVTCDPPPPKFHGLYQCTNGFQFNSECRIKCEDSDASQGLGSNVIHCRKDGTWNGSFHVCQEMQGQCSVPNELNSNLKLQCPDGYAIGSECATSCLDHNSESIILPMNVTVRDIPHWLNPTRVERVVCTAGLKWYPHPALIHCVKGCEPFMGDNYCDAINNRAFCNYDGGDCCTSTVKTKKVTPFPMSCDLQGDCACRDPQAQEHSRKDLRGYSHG
Test: cell-based or functional assay
Value expressed in pIC50; do not type the unit.

[in] Fill in the blank: the reported PAPP-A cleavage of IGFBP-5 Mean pIC50 of TPP-12792 (antibody, human IgG1, kappa, V domains shown) VH: QLQLQESGPGLVKPSETLSLTCTVSGGSISSSDYYWGWIRQPPGKGLEWIGSIFYSGSTYYNPSLKSRVTISVDTSKNQFSLKLSSVTAADTAVYYCARATTSSSADYWGQGTLVTVSS VL: DIQMTQSPSSVSASVGDRVTITCRASQGISRWLAWYQQKPGKAPKLLIYAASSVQSGVPSRFSGSGSGTDFTLTISSLQPEDFATYYCQQGNVPPLTFGGGTKVEIKR is ____.
[out] 9.78

[in] Query: PAPP-A cleavage of IGFBP-5 Mean pIC50; subject: TPP-12683 (antibody, human IgG1, kappa, V domains shown) VH: QLQLQESGPGLVKPSETLSLTCTVSGGSISSSSYNWGWIRQPPGKGLEWIGSISSSGSTYFNPSLKSRVTISVDTSKNQFSLKLSSVTAADTAVYYCARSGYRPSFYAMDAWGQGTTVTVSS VL: DIQLTQSPSSVSASVGDRVTITCRASQDISYWLAWYQQKPGKAPKLLIYAASSLQSGVPSRFSGSGSGTDFTLTISSLQPEDFATYYCQQAYLLHTFGGGTKVEIKR
[out] 8.69

[in] Param item = TPP-12744 (antibody, human IgG1, kappa, V domains shown, human IgG1/kappa, Fc-disabled (L235A, G237A)) VH: QVQLVQSGAEVKKPGASVKVSCKASGYTFTSYAMHWVRQAPGQRLEWMGWMNAGTGATKSSQKFQGRVTITRDTSASTAYMELSSLRSEDTAVYYCARGPSMETPTTFGMDVWGQGTTVTVSS VL: DIQMTQSPSSVSASVGDRVTITCRASQGISRWLAWYQQKPGKAPKLLIYAASSLQSGVPSRFSGSGSGTDFTLTISSLQPEDFATYYCQQENAYPFTFGGGTKVEIKR ; retrieve measured PAPP-A cleavage of IGFBP-5 Mean pIC50.
[out] 10.7
